# system: Voltage-dependent L-type calcium channel subunit alpha-1C (Sus scrofa)
# method-description: Inhibition of [3H]nitrendipine binding to L-type calcium channel dihydropyridine site of porcine cardiac sarcolemma membrane vesicles
measured-quantity: Ki (µM)
Response body: numeric value in µM, unit text excluded.

The recorded Ki for entry CCOC(=O)[C@H]1[C@H]2/C(=C(\O)OCC)C(C)=N[C@]1(C)Sc1c2cccc1[N+](=O)[O-] equals 0.25

Notebook: CCOC(=O)[C@H]1[C@H]2/C(=C(\O)OCC)C(C)=N[C@]1(C)Sc1ccccc12 , Ki read as 5

CCOC(=O)[C@@H]1[C@H]2/C(=C(\O)OCC)C(C)=N[C@]1(C)Sc1ccccc12 has a reported Ki of 0.5

# molecule CCOC(=O)[C@H]1[C@H]2/C(=C(\O)OCC)C(C)=N[C@]1(C)Sc1cc([N+](=O)[O-])ccc12 ; its Ki = 5

# Ki of CCOC(=O)C1=C(C)N=C(C)C(=C(O)OCC)C1c1cc([N+](=O)[O-])ccc1SC (centres undefined) = 0.08

Entry CCOC(=O)[C@@H]1[C@H]2/C(=C(\O)OCC)C(C)=N[C@]1(C)Sc1c2cccc1[N+](=O)[O-] — recorded Ki = 6

CCOC(=O)[C@H]1[C@H]2/C(=C(\O)OCC)C(C)=N[C@]1(C)Sc1ccc([N+](=O)[O-])cc12 has a reported Ki of 0.65

// recorded Ki for CCOC(=O)[C@@H]1[C@H]2/C(=C(\O)OCC)C(C)=N[C@]1(C)Sc1ccc([N+](=O)[O-])cc12 : 0.03

Ki measured on CCOC(=O)[C@@H]1[C@H]2/C(=C(\O)OCC)C(C)=N[C@]1(C)Sc1cc([N+](=O)[O-])ccc12 = 3
